Test: APR_HepG2_p53Act_24hr: Apredica 24-hour HepG2 Assay for p53 Activation (AID 2282913);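 note: p53 protein immunofluorescence averaged per cell in HepG2 with Hoechst nuclei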
Conditions: high-content imaging, actives raise or lower the signal
Activity calls are given as the source filed them. Rule for the calls: active = hit-call score of the fitted dose curve at least 0.9, where 1 is the maximum; inactive = score below 0.9.
Return exactly one item of t (active), f (inactive)

Reference set (6 entries):
Cc1cccc(C)c1O | f
CC1(C)NC(=O)NC1=O | f
Nc1nc(N)c2nc(CNc3ccc(C(=O)N[C@@H](CCC(=O)O)C(=O)O)cc3)cnc2n1 | f
Oc1ccc2ccccc2c1N=Nc1ccccc1 | f
C1CCC(SSC2CCCCC2)CC1 | t
CCCc1cc(=O)[nH]c(=S)[nH]1 | f

(Q) Assay result, entry CCCCCCOCCO — outcome?
(A) f

(Q) Subsequent entry: C=CCc1ccc(O)c(OC)c1
(A) f
